All values here come from patent US20150148256A1.

Molecular target: ABCG2 (Homo sapiens, UniProt Q9UNQ0)
Sequence (Q9UNQ0 1-655): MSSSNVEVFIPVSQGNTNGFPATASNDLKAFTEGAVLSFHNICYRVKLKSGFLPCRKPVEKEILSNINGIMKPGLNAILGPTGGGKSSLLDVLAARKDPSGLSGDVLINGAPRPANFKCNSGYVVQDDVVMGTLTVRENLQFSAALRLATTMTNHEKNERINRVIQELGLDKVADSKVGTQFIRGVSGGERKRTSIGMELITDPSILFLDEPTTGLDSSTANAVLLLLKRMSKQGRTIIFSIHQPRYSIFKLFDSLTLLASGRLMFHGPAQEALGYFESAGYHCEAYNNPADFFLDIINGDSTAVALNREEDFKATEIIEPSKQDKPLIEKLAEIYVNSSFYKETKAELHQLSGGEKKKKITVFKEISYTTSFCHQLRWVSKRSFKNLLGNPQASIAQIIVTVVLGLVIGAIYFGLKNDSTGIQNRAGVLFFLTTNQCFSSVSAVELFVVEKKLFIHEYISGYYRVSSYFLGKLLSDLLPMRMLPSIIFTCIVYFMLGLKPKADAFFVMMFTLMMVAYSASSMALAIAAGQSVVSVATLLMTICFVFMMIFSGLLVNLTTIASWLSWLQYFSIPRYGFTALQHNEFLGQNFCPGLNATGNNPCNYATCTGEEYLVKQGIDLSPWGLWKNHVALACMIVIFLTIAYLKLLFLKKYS
Test: Bioluminescence imaging (BLI) assay in HEK293/ABCG2/fLuc cells
endpoint_name: Fold (BLI enhancement, S/B ratio over control) (fold)

1) CS(=O)(=O)O.O=C(O[C@H]1C[C@H]2CC3C[C@@H](C1)N2CC3=O)c1c[nH]c2ccccc12 [dolasetron mesylate] = 3.0
2) Cc1cc(C(C)(C)CC(C)(C)C)ccc1OCCOCC[N+](C)(C)Cc1ccccc1.[Cl-] [methylbenzethonium chloride] = 2.1
3) FC(F)(F)c1ccc2c(c1)N(CCCN1CCN(CCCl)CC1)c1ccccc1S2 [fluphenazine N-mustard] = 3.6
4) Cl.Cl.OCCN1CCN(CCCN2c3ccccc3Sc3ccc(C(F)(F)F)cc32)CC1 [flufenazine hydrochloride] = 4.3
